Tested on: S. mansoni newly transformed schistosomula (NTS)
Experiment description: In vitro testing on Schistosoma mansoni newly transformed schistosomula (NTS), viability score
Format: cell-based
Measurement setup: NTS, 72 hours post-incubation
Outcome measure: IC50 (µM)
Answers are plain numbers, in µM.

QUERY: Tell me the measured IC50 of CN1CCCN2CCN(CCCN(Cc3ccccc3)CC2)CC1.[Cl-].[Cl-].[Fe+2] , please.
RESULT: 6.69

----------
System: L. donovani promastigotes
Experiment description: Antileishmanial Alamar Blue assay on promastigotes
Format: cell-based, Leishmania donovani
Measurement setup: L. donovani; ratio of molar IC50 to Pentamidine
Bucketed by reported X more potent than Pentamidine, buckets being class 0 = under 0.2, class 1 = from 0.2 up to 0.6, class 2 = 0.6 and over

Completed entries (count: 3):
| Compound | Group |
| --- | --- |
| Clc1cc(CN2CCNCCN3CCN(CC3)CC2)cc(Cl)n1 | class 0 |
| CC(=O)[O-].F[P-](F)(F)(F)(F)F.[Co+2].c1ccc(CN2CCCN3CCN(CCCN(Cc4ccccc4)CC3)CC2)cc1 [TC11, [Co(Bn2Bcyclam)(OAc)]PF6] | class 0 |
| CC(=O)[O-].F[P-](F)(F)(F)(F)F.[Ni+2].c1ccc(CN2CCCN3CCN(CCCN(Cc4ccccc4)CC3)CC2)cc1 [TC09, [Ni(Bn2Bcyclam)(OAc)]PF6] | class 1 |

QUERY: State the class of the compound shown: CC(=O)[O-].F[P-](F)(F)(F)(F)F.[Zn+2].c1ccc(CN2CCN3CCN(CC2)CCN(Cc2ccccc2)CC3)cc1 [RM42, [Zn(Bn2Bcyclen)(OAc)]PF6]
RESULT: class 2

QUERY: State the class of the compound shown: c1c(CN2CCCN3CCN(CCCNCC2)CC3)cc(CN2CCCN3CCN(CCCNCC2)CC3)cc1CN1CCCN2CCN(CCCNCC1)CC2
RESULT: class 1

QUERY: State the class of the compound shown: CC(=O)[O-].F[P-](F)(F)(F)(F)F.[Cu+2].c1ccc(CN2CCCN3CCN(CCCN(Cc4ccccc4)CC3)CC2)cc1 [RM37, [Cu(Bn2Bcyclam)(OAc)]PF6]
RESULT: class 1

QUERY: State the class of the compound shown: c1ccc(CN2CCCN3CCCN(CCCN(Cc4ccccc4)CC3)CC2)cc1
RESULT: class 2

QUERY: State the class of the compound shown: CC(=O)[O-].CC(=O)[O-].CN1CCCN2CCN(CCCN(Cc3cccc(CN4CCCN5CCN(C)CCCN(CC5)CC4)c3)CC2)CC1.F[P-](F)(F)(F)(F)F.F[P-](F)(F)(F)(F)F.[Zn+2].[Zn+2] [RM51, [Zn2(m-CB-Cyclams)(OAc)2][PF6]2]
RESULT: class 1

QUERY: State the class of the compound shown: CC(=O)[O-].CC(=O)[O-].CN1CCCN2CCN(CCCN(Cc3ccc(CN4CCCN5CCN(C)CCCN(CC5)CC4)cc3)CC2)CC1.F[P-](F)(F)(F)(F)F.F[P-](F)(F)(F)(F)F.[Zn+2].[Zn+2] [KS34, [Zn2(p-CB-cyclams)(OAc)2](PF6)2]
RESULT: class 1

QUERY: State the class of the compound shown: CC(=O)[O-].F[P-](F)(F)(F)(F)F.[Zn+2].c1ccc(CN2CCCN3CCCN(CCCN(Cc4ccccc4)CC3)CC2)cc1 [DJD23, [Zn(Bn2PBCyclam)(OAc)]PF6]
RESULT: class 2

QUERY: State the class of the compound shown: CC(=O)[O-].Clc1cc(CN2CCNCCN3CCN(CC3)CC2)cc(Cl)n1.F[P-](F)(F)(F)(F)F.[Ni+2] [OB106, [Ni(dcp1-SB-cyclen)(OAc)]PF6]
RESULT: class 0
